Biological target: PsKAI2A (Lathyrus oleraceus, UniProt A0A9D4YJ13)
Construct: PsKAI2A.2 (272 aa)
Sequence (A0A9D4YJ13 1-264 limits assumed): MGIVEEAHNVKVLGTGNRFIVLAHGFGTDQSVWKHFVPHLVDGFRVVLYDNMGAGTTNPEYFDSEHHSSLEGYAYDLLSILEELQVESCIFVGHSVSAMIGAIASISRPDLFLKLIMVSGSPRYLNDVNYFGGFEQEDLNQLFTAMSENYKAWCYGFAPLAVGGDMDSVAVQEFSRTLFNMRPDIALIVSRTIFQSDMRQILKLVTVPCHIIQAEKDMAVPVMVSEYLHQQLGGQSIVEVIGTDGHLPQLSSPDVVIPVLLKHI
Test: intrinsic tryptophan fluorescence Kd; hydrolysis by UPLC; MS covalent adduct
pKd: −log10 of the molar value.

[
  {
    "smiles-code": "CC1=C[C@@H](O/C=C2/C(=O)O[C@H]3c4ccccc4C[C@@H]23)OC1=O",
    "target-system": "PsKAI2A (Lathyrus oleraceus, UniProt A0A9D4YJ13)",
    "pKd": 3.94
  }
]

Values from paper PMC8837635
